Molecular target: Pyruvate kinase (Leishmania mexicana) (UniProt Q27686)
Sequence (Q27686 whole entry, looked up): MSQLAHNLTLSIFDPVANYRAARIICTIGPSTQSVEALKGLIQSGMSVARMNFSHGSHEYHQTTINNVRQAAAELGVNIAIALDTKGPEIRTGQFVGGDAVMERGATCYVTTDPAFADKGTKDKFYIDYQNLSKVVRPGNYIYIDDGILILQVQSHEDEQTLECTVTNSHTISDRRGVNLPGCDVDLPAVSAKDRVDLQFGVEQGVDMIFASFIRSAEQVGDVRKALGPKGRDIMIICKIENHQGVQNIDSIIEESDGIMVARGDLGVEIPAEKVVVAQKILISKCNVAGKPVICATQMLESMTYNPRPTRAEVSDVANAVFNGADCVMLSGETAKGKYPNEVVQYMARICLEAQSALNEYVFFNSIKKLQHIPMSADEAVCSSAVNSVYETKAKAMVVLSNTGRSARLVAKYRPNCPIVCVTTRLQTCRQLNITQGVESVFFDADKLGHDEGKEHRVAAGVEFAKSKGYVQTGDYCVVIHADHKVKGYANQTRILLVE
Experiment: qHTS Assay for Inhibitors of Leishmania Mexicana Pyruvate Kinase (LmPK); further: potency means the concentration at half of the fitted maximal effect
Details: purified LmPK, Kinase-Glo ATP luminescence, 1 h; series mostly up to 57.5 µM
From the text: NIH Chemical Genomics Center [NCGC] […] ATP generation was detected in a coupled reaction by luciferase-mediated luminescence, an ATP-dependent process. […]
Among all 290,000 compounds or so, about 1,100 (0.38%) were called active. The list comes from a sample in which actives are over-represented; it also holds close analogues and randomly drawn compounds.
measured attribute: Potency

// worked examples, Potency included
compound: COCCCNC(=S)NC(=O)c1ccc([N+](=O)[O-])cc1
Potency: inactive
--
compound: COc1ccc(C(=O)Nc2ccc(F)cc2F)cc1
Potency: 14.1 µM (active)
--
compound: COc1ccc(OCC(=O)Nc2ccc(NC(=O)c3ccco3)c(C)c2)cc1
Potency: inactive
--
compound: Cc1cnc(NC(=O)c2ccc(Cl)nc2)s1
Potency: inactive
--
compound: C[C@@H](NC(=O)OC(C)(C)C)c1nnc(S(=O)(=O)Cc2ccccc2)o1
Potency: inactive

For each of the compounds below, note its Potency.
1. O=C(COc1ccc(S(=O)(=O)Nc2cccc(C(F)(F)F)c2)cc1)N1CCOCC1
2. COc1ccc(NC(=O)c2cc(-c3ccc(C)cc3)on2)cc1
3. Cc1ccc(NS(=O)(=O)c2c(C)[nH]c(C)c2C(=O)N2CCCCC2)c(C)c1
4. CCOc1ccc(C2NC(=S)NC3=C2CCc2ccccc23)cc1 (centres undefined)
5. COc1cnc(-c2ccccn2)nc1Oc1ccc(C(C)(C)C)cc1
6. Cc1ccc(CN2CCN(c3ncccn3)CC2)c(C)c1
7. COc1cccc(C(=O)c2cc3ccc(O)cc3oc2=O)c1

1. inactive
2. inactive
3. inactive
4. inactive
5. inactive
6. inactive
7. 14.1 µM (active)

For each of the compounds below, note its Potency.
1. CCCCCC(=O)NC(=S)NNC(=O)c1ccc([N+](=O)[O-])cc1
2. COc1cccc(C(=O)NNC(=O)c2cccc(F)c2)c1
3. Cc1cnc(NC(=O)CSc2c(Cl)cccc2Cl)s1
4. O=C(NC(=S)NC1CCS(=O)(=O)C1)c1cccc([N+](=O)[O-])c1 (centres undefined)
5. CCN(CC)S(=O)(=O)c1ccc(-c2cn3ccc(C)cc3n2)cc1

["31.6 µM (active)", "inactive", "inactive", "inactive", "inactive"]

For each of the compounds below, note its Potency.
1. CCn1c(SCC(=O)NC2CCCC2)nnc1-c1ccoc1C
2. O=C(c1cc(-c2ccc(O)cc2)on1)N1CCOCC1

["inactive", "inactive"]

###

Biological target: Pyruvate kinase (Leishmania mexicana)
Assay: qHTS Assay for Inhibitors of Leishmania Mexicana Pyruvate Kinase (LmPK)
Conditions: purified LmPK, Kinase-Glo ATP luminescence, 1 h; series mostly up to 57.5 µM
From the text: NIH Chemical Genomics Center [NCGC] […] ATP generation was detected in a coupled reaction by luciferase-mediated luminescence, an ATP-dependent process. […]
About 1,100 (0.38%) of roughly 290,000 compounds were called active. Calls follow the shape of the dose curve; as a rule, active = well fitted inhibition curve with a large enough effect; inconclusive = small, poorly fitted or top-dose-only effect, or another doubt; inactive = no such curve, though single readings can be large or run the other way. The entries come from a sample that favours actives as a whole.
Valid outcomes are listed here; reply with one: 1.0 (active), 0.0 (inactive)

compound: C=CCn1c(C)cc(C2=NNC(=NCC)SC2)c1C
cat: 1.0
//
compound: Cn1cccc1-c1nc2ccccc2n1C
cat: 0.0
//
compound: COc1ccc(CCNCc2c(-c3ccccc3)n(C)c3ccccc23)cc1
cat: 0.0
//
compound: Cc1cccc(N=C2NN=C(c3c[nH]c4ccccc34)CS2)c1
cat: 0.0
//
compound: COc1ccccc1CN1CCNC(=O)C1CC(=O)N(C)CC1CCOCC1 (centres undefined)
cat: 0.0
//
compound: CCOC(=O)c1c(S(=O)(=O)Nc2cccc(Cl)c2)c(C)n(C)c1C
cat: 0.0
//
compound: Cn1c(-c2ccco2)nc2cc3ccccc3cc21
cat: 1.0
//
compound: Cc1ccc(N(C(=O)C(F)(F)F)C(C(=O)NC2CCCCC2)c2ccncc2)cc1C (centres undefined)
cat: 0.0
//
compound: COc1cc(C(C)=O)ccc1OC(=O)CN1C(=O)c2ccccc2C1=O
cat: 0.0
//
compound: CCOc1ccc(NC(=O)COc2ccc(S(=O)(=O)N3CCCC3)cc2)cc1
cat: 0.0

Look up the recorded call for O=C(O)c1ccc(-n2nc(-c3ccccc3)c3ccccc3c2=O)cc1 in this test.
0.0

Same read-out for COc1cc(SC)ccc1C(=O)Nc1nc(C)cs1 ?
1.0

Same read-out for CN1CCN(c2ccc(NC(=O)c3ccccc3)cc2)CC1 ?
0.0

Same read-out for c1ccc(-c2noc(-c3cccs3)n2)nc1 ?
1.0

Same read-out for CC1CCC2CCCCC2N1C(=O)c1cc([N+](=O)[O-])cc([N+](=O)[O-])c1 (centres undefined) ?
0.0

Same read-out for Cc1occc1C(=O)Nc1cccc(Cn2cccn2)c1 ?
0.0

###

Biological target: Pyruvate kinase (Leishmania mexicana)
Test: qHTS Assay for Inhibitors of Leishmania Mexicana Pyruvate Kinase (LmPK)
Settings: purified LmPK, Kinase-Glo ATP luminescence, 1 h; series mostly up to 57.5 µM
In all, about 290,000 compounds went through this assay and about 1,100 (0.38%) were called active. Calls come from the whole dose curve; as a rule, active = well fitted inhibition curve with a large enough effect; inconclusive = small, poorly fitted or top-dose-only effect, or another doubt; inactive = no such curve, though single readings can be large or run the other way. The entries come from a sample that favours actives as a whole.
Valid outcomes are listed here; reply with one: yes (1) (active), no (0) (inactive)

Would you please look over these solved cases?
molecule: O=C(CCS(=O)(=O)c1ccccc1)NC1CCCC1
target: Pyruvate kinase (Leishmania mexicana)
cat: no (0)
--
molecule: O=C(C1CCCN(S(=O)(=O)c2ccccc2)C1)N1CCN(c2ccc(F)cc2)CC1 (stereo not drawn)
target: Pyruvate kinase (Leishmania mexicana)
cat: no (0)
--
molecule: COC(=O)c1c(NC(=O)COC(=O)[C@@H](NS(=O)(=O)c2ccccc2)C(C)C)sc2c1CCC2
target: Pyruvate kinase (Leishmania mexicana)
cat: no (0)
--
molecule: CC(C(=O)Nc1ccc(O)c(C(=O)O)c1)N1C(=O)/C(=C/c2cccs2)SC1=S (stereo not drawn)
target: Pyruvate kinase (Leishmania mexicana)
cat: no (0)
--
molecule: CCOc1ccc(N(CC(=O)Nc2cccc(OC)c2)S(C)(=O)=O)cc1
target: Pyruvate kinase (Leishmania mexicana)
cat: no (0)
--
molecule: Cc1ccc(OCc2n[nH]c(=S)n2-c2ccc(C)cc2)cc1
target: Pyruvate kinase (Leishmania mexicana)
cat: no (0)

Look up the recorded call for CCOc1cccc(/C=C/c2ccc3ccccc3n2)c1OC(C)=O in this test.
no (0)

Same read-out for c1ccc2[nH]c(-c3nc4ccccc4[nH]3)nc2c1 ?
yes (1)

Same read-out for CC1CC(C)CN(c2ccc(S(=O)(=O)N3CCOCC3)cc2)C1 (stereo not drawn) ?
no (0)

Same read-out for Cc1cc(C)c(OCC(=O)N(Cc2cccs2)C2CCS(=O)(=O)C2)c(C)c1 (stereo not drawn) ?
no (0)

Same read-out for COc1ccccc1OCc1nc2ccccc2s1 ?
yes (1)

Same read-out for COc1cccc(CNC(=O)C2CCCN(S(=O)(=O)N3CC(C)CC(C)C3)C2)c1 (stereo not drawn) ?
no (0)

Same read-out for Clc1ccc(-c2cc(-c3ccccn3)on2)c(Cl)c1 ?
yes (1)

Same read-out for O=C(Nc1cccc(-c2nc3ccccc3[nH]2)c1)c1ccc(C(=O)Nc2cccc(-c3nc4ccccc4[nH]3)c2)cc1 ?
no (0)

Same read-out for Cc1ccc(-n2c(-c3ccc(Cl)cc3)n[nH]c2=S)cc1 ?
yes (1)

###

Target: Pyruvate kinase (Leishmania mexicana)
Experiment: qHTS Assay for Inhibitors of Leishmania Mexicana Pyruvate Kinase (LmPK)
Details: purified LmPK, Kinase-Glo ATP luminescence, 1 h; series mostly up to 57.5 µM
Description: NIH Chemical Genomics Center [NCGC] […] ATP generation was detected in a coupled reaction by luciferase-mediated luminescence, an ATP-dependent process. […]
The campaign covered roughly 290,000 compounds. About 1,100 (0.38%) were called active. Calls come from the whole dose curve; as a rule, active = well fitted inhibition curve with a large enough effect; inconclusive = small, poorly fitted or top-dose-only effect, or another doubt; inactive = no such curve, though single readings can be large or run the other way. For the sample, actives were picked, then their nearest neighbours and some compounds at random.
Valid outcomes are listed here; reply with one: T for active, F for inactive

compound: CCOC(=O)C(C)n1cnc2c(nnn2-c2ccc(F)cc2)c1=O (stereo not given)
cat: F

Look up the recorded call for COc1ccc(-c2cn3cccnc3n2)cc1 in this test.
F

Same read-out for COc1cc(OC)cc(C(=O)OCC(=O)Nc2ccc(F)cc2F)c1 ?
F

Same read-out for S=c1[nH]ccn1-c1ccc(Cl)cc1 ?
T

Same read-out for CCCNC(=O)CCc1c(C)nc2c(c(C)nn2-c2ccc(C)cc2)c1C ?
F

###

Biological target: Pyruvate kinase (Leishmania mexicana)
Assay: qHTS Assay for Inhibitors of Leishmania Mexicana Pyruvate Kinase (LmPK)
Details: purified LmPK, Kinase-Glo ATP luminescence, 1 h; series mostly up to 57.5 µM
In all, about 290,000 compounds went through this assay and about 1,100 (0.38%) were called active. Calls follow the shape of the dose curve; as a rule, active = well fitted inhibition curve with a large enough effect; inconclusive = small, poorly fitted or top-dose-only effect, or another doubt; inactive = no such curve, though single readings can be large or run the other way. The list comes from a sample in which actives are over-represented; it also holds close analogues and randomly drawn compounds.
Valid outcomes are listed here; reply with one: active, inactive

Would you please look over these solved cases?
molecule: CSCCC(NS(=O)(=O)c1ccccc1F)C(=O)N1CC=C(c2ccccc2)CC1 (stereo not drawn)
cat: inactive
--
molecule: Cc1cc(C2=NNC(=Nc3ccc(S(=O)(=O)N4CCOCC4)cc3)SC2)c(C)n1CC1CCCO1 (stereo not drawn)
cat: inactive
--
molecule: Cc1ccccc1Cn1c(=O)[nH]c2ccccc21
cat: inactive
--
molecule: COc1ccc(CCN2CC(C(=O)NCCN3CCNC3=O)CCC2=O)cc1 (stereo not drawn)
cat: inactive
--
molecule: COC(=O)C(C)n1cnc2c(nnn2-c2ccc(F)cc2)c1=O (stereo not drawn)
cat: inactive
--
molecule: O=c1[nH]c2ccccc2n2c(-c3ccccc3)nnc12
cat: active
--
molecule: COc1ccc(C(=O)O/N=C(\N)c2ccccn2)cc1[N+](=O)[O-]
cat: inactive
--
molecule: COC(=O)c1ccc(C23CC4(C2)[C@H](CN(Cc2cccnc2)[C@@H]4c2ccccc2)C3c2ccc(Cl)nc2)cc1 (stereo partly drawn)
cat: inactive

Look up the recorded call for CCn1c(SCC(=O)NC2CC2)nnc1-c1ccccc1OC in this test.
inactive

Same read-out for COc1cccc(CCNC(=O)c2cccc(NC(=O)C3=C(C)OCCS3)c2)c1 ?
inactive

Same read-out for O=C(NCc1cccnc1)c1cccc(-c2cc3ccccc3oc2=O)c1 ?
inactive

Same read-out for CC1(C(=O)O)CCC(C(=O)Nc2ccc(Cl)c(Cl)c2)C1(C)C (stereo not drawn) ?
inactive

Same read-out for COc1cc2c(C(=O)N(C)c3cc(Cl)ccc3OC)cn(C)c(=O)c2cc1OC ?
inactive

Same read-out for CC(=O)c1c(-c2ccccc2)c2ccccc2[nH]c1=O ?
inactive

Same read-out for CC(=O)Nc1ccc(NS(=O)(=O)c2ccc3c(c2)NC(=O)CC(=O)N3)cc1 ?
inactive

Same read-out for NNC(=O)CNC(c1ccccc1)c1cc(Cl)ccc1NC(=O)c1ccccc1 (stereo not drawn) ?
inactive

Same read-out for COc1ccc(NS(=O)(=O)c2ccc3oc(SCC(N)=O)nc3c2)cc1 ?
inactive

Same read-out for CCC1CCCCN1CCCNC(=O)c1cc2c(Cl)nc3ccccc3c2s1 (stereo not drawn) ?
inactive

Same read-out for Cc1occc1C(=O)Nc1nnc(-c2ccncc2)s1 ?
inactive

Same read-out for COc1ccc(C(=O)C[n+]2ccc(C)cc2)cc1 ?
inactive

Same read-out for COc1ccc(C(=O)NC2CC(C)(C)NC(C)(C)C2)cc1OC ?
inactive

Same read-out for COc1ccc(C(=O)C[n+]2ccc(N)c(C)c2C)cc1 ?
active

Same read-out for CC(=O)NC1=NN(C(C)=O)C(C)(c2ccc(Cl)s2)S1 (stereo not drawn) ?
inactive
